Kindly supply the reported IC50 values for the records listed here.
Tested on: H1299 cells
Test summary: MTT cell viability, H1299
Assay type: cell-based
Assay context: Homo sapiens, NCI-H1299; H1299; MTT at 24 hours; Table 4; read-out: IC50 (μM) H1299
Description: Cell Culture: HeLa, DU145, H1299, DLD1, SW480, A549, MCF7, LN18, HCT116, HepG2, Paca2, Panel, LNcap, FaDu, HT29, and PC3 cells (ATCC, Manassas, Va.) were maintained in Dulbecco's Modified Eagle Medium (DMEM) (Invitrogen, Carlsbad, Calif.) supplemented with 10% fetal bovine serum (MS) (Gemini Bio-Products, West Sacramento, Calif.) and 5% penicillin/streptomycin/amphotercin B (Invitrogen). […]
Value expressed in µM; do not type the unit.

Exam item: Look up IC50 of CC(=O)c1cc2c(o1)C(=O)c1ccccc1C2=O [Compound 401] and report it.
Marked response: 0.234

Exam item: Dear colleague, please send me the reported IC50 for O=C(c1ccc(O)cc1)c1cc2c(s1)C(=O)c1ccccc1C2=O [Compound 408] when you can.
Marked response: 3.62

Exam item: Please report IC50 for the following compound: O=C(c1ccc(O)c(O)c1)c1cc2c(s1)C(=O)c1ccccc1C2=O [Compound 411]
Marked response: 14.1

Exam item: Look up IC50 of O=C(c1ccc([N+](=O)[O-])cc1)c1cc2c(s1)C(=O)c1ccccc1C2=O [Compound 403] and report it.
Marked response: 4

Exam item: Give reported IC50 value for COc1ccc(C(=O)c2cc3c(s2)C(=O)c2ccccc2C3=O)cc1OC [Compound 410]
Marked response: 1.88

Exam item: For the compound O=C(c1ccccc1)c1cc2c(o1)C(=O)c1ccccc1C2=O [Compound 412] , report IC50.
Marked response: 0.524

Exam item: Specify reported IC50 for the compound shown: O=C(c1ccccc1)c1cc2c(s1)C(=O)c1ccccc1C2=O [Compound 402]
Marked response: 1.04

Exam item: Provide only the value of recorded IC50 for CC(=O)c1cc2c(s1)C(=O)c1ccccc1C2=O [Compound 409]
Marked response: 1.03

Exam item: Please look at this compound and report its IC50: CCc1cc2c(o1)C(=O)c1cc(Cl)ccc1C2=O [Compound 105]
Marked response: 8.4
